Study system: D(2) dopamine receptor (Homo sapiens, UniProt P14416)
Sequence (P14416 whole entry): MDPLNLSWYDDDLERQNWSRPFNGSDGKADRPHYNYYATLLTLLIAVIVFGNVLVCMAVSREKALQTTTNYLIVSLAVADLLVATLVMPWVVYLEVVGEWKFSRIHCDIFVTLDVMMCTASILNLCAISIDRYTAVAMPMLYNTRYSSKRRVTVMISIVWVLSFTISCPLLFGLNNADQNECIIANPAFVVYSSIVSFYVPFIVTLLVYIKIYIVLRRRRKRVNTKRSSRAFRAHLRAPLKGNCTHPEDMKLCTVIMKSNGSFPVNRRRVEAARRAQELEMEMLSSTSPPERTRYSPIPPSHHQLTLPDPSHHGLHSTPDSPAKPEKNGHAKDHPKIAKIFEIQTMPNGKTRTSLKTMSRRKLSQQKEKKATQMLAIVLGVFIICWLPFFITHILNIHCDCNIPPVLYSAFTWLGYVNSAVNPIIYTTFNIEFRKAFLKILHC
Just a reminder that ties go to No: only EC50 strictly below 300 nM counts as Yes.

Molecule	Class
O=Cc1cnn2ccc(OCCCCN3CCN(c4cccc(Cl)c4Cl)CC3)cc12	No
N#Cc1cc2cc(OCCCCN3CCN(c4cccc(Cl)c4Cl)CC3)ccn2n1	Yes
CCOC(=O)c1cc2cc(OCCCCN3CCN(c4cccc(Cl)c4Cl)CC3)ccn2n1	No
O/N=C/c1cnn2ccc(OCCCCN3CCN(c4cccc(Cl)c4Cl)CC3)cc12 (stereo in doubt; 8a)	Yes
N#Cc1cnn2ccc(OCCCCN3CCN(c4cccc(Cl)c4Cl)CC3)cc12	Yes

---

pEC50: −log10 of the molar value.
Values of pEC50 reported for D(2) dopamine receptor (Homo sapiens) appear below.
Test readout: pEC50

Molecule	Test readout	Data value
OCc1cc2cc(OCCCCN3CCN(c4cccc(Cl)c4Cl)CC3)ccn2n1	pEC50	6.27
O/N=C/c1cnn2ccc(OCCCCN3CCN(c4cccc(Cl)c4Cl)CC3)cc12 (stereo in doubt; 8b)	pEC50	6.62
Clc1cccc(N2CCN(CCCCOc3ccc4ccnn4c3)CC2)c1Cl	pEC50	5.89
Clc1cccc(N2CCN(CCCCOc3ccn4nccc4c3)CC2)c1Cl	pEC50	6.74
O=Cc1cnn2cc(OCCCCN3CCN(c4cccc(Cl)c4Cl)CC3)ccc12	pEC50	6.47

---

Assay read-out Ki; system under study: 5-hydroxytryptamine receptor 2A (Homo sapiens).
Sequence (P28223 whole entry): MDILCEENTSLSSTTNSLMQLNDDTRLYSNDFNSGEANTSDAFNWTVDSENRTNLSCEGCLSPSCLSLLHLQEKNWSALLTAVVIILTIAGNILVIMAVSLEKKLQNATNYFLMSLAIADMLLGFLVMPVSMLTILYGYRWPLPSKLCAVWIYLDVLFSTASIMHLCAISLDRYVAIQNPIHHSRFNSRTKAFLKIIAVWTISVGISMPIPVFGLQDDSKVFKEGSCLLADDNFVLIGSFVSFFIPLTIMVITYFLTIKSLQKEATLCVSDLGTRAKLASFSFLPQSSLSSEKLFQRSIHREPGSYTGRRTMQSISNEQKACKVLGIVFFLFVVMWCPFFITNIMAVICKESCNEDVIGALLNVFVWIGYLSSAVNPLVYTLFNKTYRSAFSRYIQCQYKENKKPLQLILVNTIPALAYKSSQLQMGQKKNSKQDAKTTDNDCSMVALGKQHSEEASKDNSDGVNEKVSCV

Smiles text	Ki, nM
O=Cc1cc2cc(OCCCCN3CCN(c4cccc(Cl)c4Cl)CC3)ccn2n1	56
O/N=C/c1cc2cc(OCCCCN3CCN(c4cccc(Cl)c4Cl)CC3)ccn2n1	7.9

---

Target or system D(1A) dopamine receptor (Homo sapiens, UniProt P21728); recorded quantity Ki.
Test readout: Ki (nM)

Compound	Test readout	Uom	Data value
CCOC(=O)c1cc2cc(OCCCCN3CCN(c4cccc(Cl)c4Cl)CC3)ccn2n1	Ki	nM	150
O/N=C/c1cnn2ccc(OCCCCN3CCN(c4cccc(Cl)c4Cl)CC3)cc12 (stereo in doubt; 8b)	Ki	nM	670
O/N=C/c1cnn2ccc(OCCCCN3CCN(c4cccc(Cl)c4Cl)CC3)cc12 (stereo in doubt; 8a)	Ki	nM	4300
O=Cc1cc2cc(OCCCCN3CCN(c4cccc(Cl)c4Cl)CC3)ccn2n1	Ki	nM	180
N#Cc1cc2cc(OCCCCN3CCN(c4cccc(Cl)c4Cl)CC3)ccn2n1	Ki	nM	3500

---

Study system: D(2) dopamine receptor (Homo sapiens, UniProt P14416)
Measurement notes: biochemical
Assay type: cell-based, CHO
pKi: −log10 of the molar value.
Outcome: label 1 for pKi of at least 8; label 0 for anything lower.

Compound	Class
O/N=C/c1cnn2ccc(OCCCCN3CCN(c4cccc(Cl)c4Cl)CC3)cc12 (stereo in doubt; 8a)	label 1
Clc1cccc(N2CCN(CCCCOc3cccn4nccc34)CC2)c1Cl	label 0
O/N=C/c1cc2cc(OCCCCN3CCN(c4cccc(Cl)c4Cl)CC3)ccn2n1	label 1
O/N=C/c1cnn2ccc(OCCCCN3CCN(c4cccc(Cl)c4Cl)CC3)cc12 (stereo in doubt; 8b)	label 1
N#Cc1cnn2ccc(OCCCCN3CCN(c4cccc(Cl)c4Cl)CC3)cc12	label 1
OCc1cc2cc(OCCCCN3CCN(c4cccc(Cl)c4Cl)CC3)ccn2n1	label 1
O=Cc1cnn2ccc(OCCCCN3CCN(c4cccc(Cl)c4Cl)CC3)cc12	label 1
O=Cc1cnn2c(OCCCCN3CCN(c4cccc(Cl)c4Cl)CC3)cccc12	label 0
O=Cc1cnn2cccc(OCCCCN3CCN(c4cccc(Cl)c4Cl)CC3)c12	label 0
Clc1cccc(N2CCN(CCCCOc3cccc4ccnn34)CC2)c1Cl	label 0
Clc1cccc(N2CCN(CCCCOc3ccn4nccc4c3)CC2)c1Cl	label 0
Clc1cccc(N2CCN(CCCCOc3ccc4ccnn4c3)CC2)c1Cl	label 1
